tested on: RPMI-8226 leukemia; assay: NCI tumour cell line growth inhibition, 48 h
RECORDED_METRIC: TGI

For orientation, consider the following solved cases.
>>> val("CCOC(=O)C(=O)Nc1ccc(C)c(C)c1")
"> 100 µM"
>>> val("COc1ccccc1/C=C1\\Sc2scc(-c3ccc(O)c(O)c3)[n+]2C1=O")
"45.2 µM"
>>> val("CCOc1nc(-c2ccccc2)cc2c(O)c(C(=O)N/N=C/c3ccc(O)cc3O)[nH]c(=O)c12")
"43 µM"

Note to self: TGI of Cc1cc(N(CCC#N)CCC#N)ccc1/C=C\C(=O)Nc1ccccc1 with RPMI-8226 leukemia was > 100 µM

Note to self: TGI of CN(C)Cc1cc(N=Nc2ccccc2)ccc1O with RPMI-8226 leukemia was > 100 µM

Note to self: TGI of CC1(C)OC2C(CO)OC(n3cnc(N)nc3=O)C2O1 (stereo unspecified) with RPMI-8226 leukemia was > 100 µM

Note to self: TGI of CN(C)CCC=C1c2ccccc2C=Cc2ccccc21 with RPMI-8226 leukemia was 52.3 µM

Note to self: TGI of COc1ccc(-c2cc(=O)c3c(OC)cccc3o2)c(OC)c1OC with RPMI-8226 leukemia was > 100 µM

Note to self: TGI of CC(=O)O[C@H]1CC2C(C3CCC(C(C)CCC(=O)O)[C@]31C)[C@H](OC(C)=O)C[C@@H]1CC3(CC[C@]21C)OOC1(CC[C@]2(C)C4C[C@H](OC(C)=O)[C@]5(C)C(C(C)CCC(=O)O)CCC5C4[C@H](OC(C)=O)C[C@@H]2C1)OO3 (stereo partly specified) with RPMI-8226 leukemia was 14.7 µM

Note to self: TGI of N#CC(/C(CCCC(=O)Nc1cccc([N+](=O)[O-])c1)=N/NC(=O)c1cc2ccccc2cc1O)c1ccccc1 (stereo unspecified) with RPMI-8226 leukemia was > 100 µM

Note to self: TGI of O=C(CC1=Nc2nnc(CCCCCCCc3nnc4n3C(=O)C(CC(=O)c3ccccc3)=N4)n2C1=O)c1ccccc1 with RPMI-8226 leukemia was > 100 µM

Note to self: TGI of CC(=O)[CH-]C(C)=O.CC(=O)[CH-]C(C)=O.CC(=O)[CH-]C(C)=O.[In+3] with RPMI-8226 leukemia was > 100 µM

Note to self: TGI of Fc1cnc(NC2CC2)nc1-c1cnc2ccc(N3CCOCC3)cn12 with RPMI-8226 leukemia was 1.71 µM

Note to self: TGI of O=C1NC2C(=O)N(Cc3ccccc3)C(=O)C2N1 (stereo unspecified) with RPMI-8226 leukemia was > 100 µM

Note to self: TGI of COc1ccc(/C=N/c2nc3cc4sc(/N=C/c5ccc(OC)cc5)nc4cc3s2)cc1 with RPMI-8226 leukemia was > 100 µM

Note to self: TGI of CN1CCN([C@H]2C[C@H]3[C@@H]4CC=C5C[C@@H](N6CCCC6)CC[C@]5(C)[C@H]4CC[C@]3(C)[C@H]2O)CC1 with RPMI-8226 leukemia was 53.6 µM

Note to self: TGI of C/C1=C\[C@H](C)C[C@H](C)OC(=O)C[C@H](c2ccc(O)cc2)NC(=O)[C@H](Cc2ccc(O)c(I)c2)N(C)C(=O)[C@H](C)NC(=O)[C@@H](C)C1 with RPMI-8226 leukemia was > 25 µM

====

test system: UACC-62 melanoma; assay: NCI tumour cell line growth inhibition, 48 h; in the data active means GI50 below about 0.43 µM; inactive means the rest
Choose one outcome from this list and give only that: True = active, False = inactive

Answered examples (3):
>>> class_label("CCOc1nc(-c2ccccc2)cc2c(O)c(C(=O)N/N=C/c3ccc(O)cc3O)[nH]c(=O)c12")
"False"
>>> class_label("CCCS(=O)(=O)Nc1ccc(F)c(C(=O)c2c[nH]c3ncc(Cl)cc23)c1F")
"True"
>>> class_label("O=c1c2ccc3cccc4c(=O)c5ccc6cccc1c6c5-c2c34")
"False"

Next:
Query string: Can you look up the reported call for CCOC(=O)[C@H]1O[C@@H]1C(=O)N[C@@H](CC(C)C)C(=O)NCCc1ccc(O)cc1 for me?
Result string: False

====

test system: OVCAR-8 ovarian; assay: NCI tumour cell line growth inhibition, 48 h
RECORDED_METRIC: TGI

For orientation, consider the following solved cases.
>>> val("CC(C)(C)C1CCC2c3c([nH]c4ccccc34)C3C(=O)N(c4cccc([N+](=O)[O-])c4)C(=O)C3C2C1 (centres undefined)")
"> 100 µM"
>>> val("O=C(O)CNC(=O)C(CS)Cc1ccccc1 (centres undefined)")
"> 25 µM"
>>> val("Nc1ccc2c(c1)C(=O)N(OS(=O)(=O)c1ccccc1)C2=O")
"> 100 µM"

Note: attention shifts to another entry.
The compound identified as CCCS(=O)(=O)Nc1ccc(F)c(C(=O)c2c[nH]c3ncc(Cl)cc23)c1F registered its TGI at 61.8 µM

====

We begin with a simple list: items and their reported TGI.
system: RXF 393 renal; test: NCI tumour cell line growth inhibition, 48 h
Reply with just the number (in µM).

For orientation, consider the following solved cases.
>>> val("CC12OC1(C)C1C(=O)OCC1C2=O (configuration not stated)")
84.6
>>> val("CC(=O)C1=C(c2ccccc2)N(C2OC(CO)C(O)C(O)C2O)C(S)=C(C#N)C1c1ccc(Cl)cc1 (configuration not stated)")
85.3

Note: attention shifts to another entry.
The compound identified as O=C(Oc1ccc(S(=O)(=O)F)cc1F)c1ccccc1Cl registered its TGI at 64.5

====

We begin with a simple list: items and their reported GI50.
tested on: SK-MEL-28 melanoma; assay: NCI tumour cell line growth inhibition, 48 h
*1 amine or outer side, *2 acyl side, *3 side chain or, on linkers, in order; H or OH if unused. Where a SMILES comes first, the peptide text is derived from it. Residues, ends and D or L forms follow the SMILES beside them. Bridges are numbered along the chain shown (N, C = ends). [ ]: non-standard residue; d: D form. *: point of attachment. Adda = CO[C@@H](Cc1ccccc1)[C@@H](C)/C=C(C)/C=C/[C@H](N[*:1])[C@H](C)C(=O)[*:2]; dAsp(3S-Me) = C[C@H](C(=O)[*:3])[C@@H](N[*:1])C(=O)[*:2]; d(γGlu) = O=C(O)[C@@H](CCC(=O)[*:2])N[*:1]; NMeDha = C=C(NC)C(=O)O; Boc = CC(C)(C)OC(=O)*

For orientation, consider the following solved cases.
>>> val("O=c1c2cc(F)ccc2sc2c(N3CCNCC3)nc3ccccc3c12")
"1.75 µM"
>>> val("COC(=O)CNC(=O)C(Cc1ccccc1)NC(=O)C(Cc1ccccc1)NC(=O)OC(C)(C)C (stereo not drawn) (Boc-Phe-Phe-Gly-OMe; configuration not given here)")
"18.7 µg/mL"
>>> val("C=C1C(=O)N[C@H](C)C(=O)N[C@@H](CC(C)C)C(=O)N[C@@H](C(=O)O)[C@H](C)C(=O)N[C@@H](CCCN=C(N)N)C(=O)N[C@@H](/C=C/C(C)=C/[C@H](C)[C@H](Cc2ccccc2)OC)[C@H](C)C(=O)N[C@@H](C(=O)O)CCC(=O)N1C (R[Adda][d(γGlu)][NMeDha][dA]L[dAsp(3S-Me)]-OH; lactam N-7)")
"> 5 µM"
>>> val("CCOC(=O)[C@H]1O[C@@H]1C(=O)N[C@@H](CC(C)C)C(=O)NCCc1ccc(O)cc1")
"> 100 µM"
>>> val("O=C1C=CC(=O)N1C1CCCCCCCCCCC1")
"14.5 µM"

The compound identified as O=C1c2ccccc2-c2nnc(-c3ccc(Br)cc3)cc21 registered its GI50 at > 100 µM

====

tested on: SR leukemia; assay: NCI tumour cell line growth inhibition, 48 h
We begin with a simple list: items and their reported TGI.

>>> val("CNC(=S)Nc1sc2c(c1C#N)CCCC2")
"> 75 µM"
>>> val("C=C1CCC2C(C)(CO)C(O)CCC2(C)C1CC(O)/C(=C/CO)C(=O)O (stereo unspecified)")
"> 100 µM"
>>> val("C1CSCCCSCCCSCCCSCCCSC1")
"29.5 µM"
>>> val("CN1CCN(C(=S)N(C(=O)c2cccs2)C2CCCCC2)CC1")
"> 100 µM"

The compound identified as COc1cc(/C=C2\C(=O)N(c3cc(Cl)ccc3Cl)C(c3ccccc3)S2(=O)=O)cc(OC)c1OC (stereo unspecified) registered its TGI at > 100 µM

The compound identified as CC1=NN(c2nc(N)nc(C(C#N)C(=O)c3cc4c(cc3Cl)Sc3nccn3S4(=O)=O)n2)C(C)(C)C1 (stereo unspecified) registered its TGI at 25 µM

====

We begin with a simple list: items and their reported TGI.
test system: IGROV1 ovarian; experiment: NCI tumour cell line growth inhibition, 48 h

For orientation, consider the following solved cases.
>>> val("CCCc1onc(CCC(=O)N(Cc2ccccc2)Cc2ccccc2)c1CC")
"> 100 µM"
>>> val("O=C1Nc2ccccc2C1=Nc1ccc(S(=O)(=O)Nc2nccs2)cc1")
"> 100 µM"
>>> val("O=[N+]([O-])c1ccc2c(c1)Sc1ccccc1N2CCCCCl")
"> 100 µM"
>>> val("Fc1cnc(NC2CC2)nc1-c1cnc2ccc(N3CCOCC3)cn12")
"17.5 µM"
>>> val("COC(=O)[C@H](NC(=O)OC(C)(C)C)[C@H]1COC(C)(C)O1")
"> 100 µM"

Note to self: TGI of COc1ccc2[nH]c(-c3ccccc3)c(/C=C(\C#N)S(=O)(=O)c3ccccc3)c2c1 with IGROV1 ovarian was 25.5 µM

Note to self: TGI of Oc1ccc2ccccc2c1CN(Cc1c(O)ccc2ccccc12)C1CCCCC1 with IGROV1 ovarian was 27.6 µM

Note to self: TGI of CCOC(=O)[C@H]1O[C@@H]1C(=O)N[C@@H](CC(C)C)C(=O)NCCc1ccc(O)cc1 with IGROV1 ovarian was > 100 µM

Note to self: TGI of CC(=O)OC1CC2(C)C(OC(C)=O)CC1C2(C)C (centres undefined) with IGROV1 ovarian was > 100 µM

Note to self: TGI of C/C1=C\[C@H](C)C[C@H](C)OC(=O)C[C@H](c2ccc(O)cc2)NC(=O)[C@H](Cc2ccc(O)c(I)c2)N(C)C(=O)[C@H](C)NC(=O)[C@@H](C)C1 with IGROV1 ovarian was > 25 µM
